target: T1, Human plasmin (human, UniProt P00747 97-810, limits assumed); test: plasmin inhibition assay, 1 hr at 37° C., 1 mM S-2251
T1 construct: Bought enzyme
T1 sequence (P00747 97-810 limits assumed): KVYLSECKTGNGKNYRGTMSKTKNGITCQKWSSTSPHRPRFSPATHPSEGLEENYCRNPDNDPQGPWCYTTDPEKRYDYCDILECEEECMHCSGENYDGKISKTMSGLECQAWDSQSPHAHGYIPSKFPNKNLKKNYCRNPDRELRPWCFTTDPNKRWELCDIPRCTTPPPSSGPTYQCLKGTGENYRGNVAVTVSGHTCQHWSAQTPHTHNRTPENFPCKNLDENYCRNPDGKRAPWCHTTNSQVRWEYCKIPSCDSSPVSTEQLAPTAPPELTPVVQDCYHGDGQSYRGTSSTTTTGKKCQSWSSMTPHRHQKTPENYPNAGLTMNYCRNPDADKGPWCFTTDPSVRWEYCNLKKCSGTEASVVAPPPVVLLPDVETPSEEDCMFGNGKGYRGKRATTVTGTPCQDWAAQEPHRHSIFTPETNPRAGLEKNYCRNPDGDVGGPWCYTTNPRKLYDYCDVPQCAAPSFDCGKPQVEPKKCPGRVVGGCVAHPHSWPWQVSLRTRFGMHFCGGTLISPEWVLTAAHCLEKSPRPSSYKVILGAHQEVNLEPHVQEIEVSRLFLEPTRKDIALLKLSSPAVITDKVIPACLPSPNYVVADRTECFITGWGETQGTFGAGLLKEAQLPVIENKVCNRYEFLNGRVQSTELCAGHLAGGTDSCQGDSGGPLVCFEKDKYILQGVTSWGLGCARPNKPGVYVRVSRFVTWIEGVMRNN

binder	Kd
KD1 R15K/L17R double mutant (R24K/L26R in KD1 numbering) (other, Made from KD1 by site-directed mutagenesis, with the His tag removed) DAAQEPTGNNAEICLLPLDYGPCKARLLRYYYDRYTQSCRQFLYGGCEGNANNFYTWEACDDACWRIEKVPKV	3 nM
